# credit: patent US20250170111A1

# System: MDA-MB-436
# Assay Comment: Alamar Blue cell viability assay, MDA-MB-436
# Assay type: cell-based
# Test Settings: Homo sapiens, 48 hrs. post treatment, Mean ± SEM, read-out: IC50 against MDA-MB-436
pIC50: −log10 of the molar value.
Overview of reported pIC50 across a group of compounds:
Measure: pIC50

compound=COc1ccccc1C(=O)/C=C/c1cccc(-c2ccsc2)n1 test_system=MDA-MB-436 test_value=5.80
compound="CC(=O)O[C@@]12CO[C@@H]1C[C@H](O)[C@@]1(C)C(=O)[C@H](O)C3=C(C)[C@@H](OC(=O)[C@H](O)[C@@H](NC(=O)OC(C)(C)C)c4ccccc4)C[C@@](O)([C@@H](OC(=O)c4ccccc4)[C@H]21)C3(C)C [docetaxel, reference compound]" test_system=MDA-MB-436 test_value=5.01
compound=O=C(/C=C/c1cccc(-c2ccsc2)n1)c1ccccc1C(F)(F)F test_system=MDA-MB-436 test_value=6.06
